Just for reference, paper PMC2756588 is where these values come from.

TEST TARGET: T1, Bud14, P27637
T1 sequence (P27637 247-328, looked up): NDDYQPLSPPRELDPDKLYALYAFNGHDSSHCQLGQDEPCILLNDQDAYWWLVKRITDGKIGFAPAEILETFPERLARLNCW
ASSAY DETAILS: SPOT array
EXPERIMENTAL PARAMETERS: median of control spots 956
RECORDED ENDPOINT: SPOT intensity

Some binders with recorded SPOT intensity:
{"BINDER": "MPAPPPPPPPPPGAF", "OBSERVED": 0}
{"BINDER": "PPIPNAPLSPAPAVP", "OBSERVED": 2}
{"BINDER": "IKTRSVPKIPSIESV", "OBSERVED": 2}
{"BINDER": "GDHPKGPPPPPPPDE", "OBSERVED": 1}
{"BINDER": "YRRKSIPFAPHQITA", "OBSERVED": 0}

[1] SLSRRRFSLPSMPNV
[2] NPLPKEPRLPKRKVA
Lookup: Kindly identify which of 1 and 2 has the larger recorded SPOT intensity value. # reply format: chosen label
Found: 2

[A] PPLPRAPPVPPATFE
[B] LRWRHKFFLPAIAAI
Lookup: # argmax over SPOT intensity for candidates A and B Select an item and report its label.
Found: B
(B: 10, A: 0)

[P] IRMPSNPALPKKLLN
[Q] VDFTLPPPPPPPGLD
Lookup: # return whichever of P and Q has the smaller SPOT intensity Write down the label of the entry you select.
Found: Q

[I] FTLPPPPPPPGLDEL
[II] AIPPPVPNRPGGTTN
Lookup: Which shows the larger SPOT intensity value: I or II ? Answer format: the label of the selected item.
Found: II
(II: 2, I: 0)

[P] FYHRPAPKPPVTKKV
[Q] ISRRRLPVIMHRLKM
Lookup: Input pair: P , Q . Output: entry with lower SPOT intensity. Use the label to indicate which entry you chose.
Found: P
(P: 0, Q: 2)
